Assay: Effect of pH to solubility of polydatin (Embodiment 12)
Format: physicochemical
Details: deionized water of adjusted pH, pH 6, aqueous buffer, thermodynamic from solid, pH of solvent 6.0; water, room temperature
Text: • 1. Materials: Deionized water, […] industry city; sodium hydroxide, Dongguan dongjiang chemical reagent co., ltd.; hydrochloric acid, Dongguan dongjiang chemical reagent co., ltd. • 2. Method: Regulating deionized water into pH of 5.0˜12.0 with 0.2N sodium hydroxide and 0.2N hydrochloric acid. […]
Reported metric: solubility at 8 h

Problem: Look up and report measured solubility at 8 h for this entry: OCC1OC(Oc2cc(O)cc(/C=C/c3ccc(O)cc3)c2)C(O)C(O)C1O (stereo not shown)
Result: < 0.5 mg/mL
